Test: yeast display, Sf9 membrane polyspecificity reagent, FACS + sequencing; frameworks hold sequencing errors
quantity: polyreactivity (PSR sort gate)

Worked examples follow.
# polyreactivity (PSR sort gate) (sequence: QVQLVESGGGLVQAGGSLRLSCAASGSTFGGYAMGRYRQAPGKERELVAAISQSGTRTYYADSVKGRFTISRDNAKYTVYLQMNSLKPEDTAVYYCAARRLYYHPTLYYWGQGTQVTVSS ) is high polyreactivity

# polyreactivity (PSR sort gate) (sequence: QVQLVESGGGLVQAGGSLRFSCAASGLIFGSYTMGWSRQAPGKERELVAGISRGGGITYYADSVKGRFTISRDNAKNTVYLQMNSLKPEDTAVYYCAAGYFSYSPYGSYKFGYWGQGTQVTVSS ) is high polyreactivity

# polyreactivity (PSR sort gate) (sequence: QVQLVESGGGLVQAGGSLRLSCAASGRTFRYYTKGWSRQAPGKERELVADINTSVGSTDYADSVKGRFTISRDNAKNTVYLQMNSLKPEDTAVYYCAKVGFTYYAVDYWGQGTQVTVSS ) is high polyreactivity

# polyreactivity (PSR sort gate) (sequence: QVQLVESGGGLVQAGGSLRLSCAASGSIFELYAMGWYRQAPGKERELVAAISSTGGRTYYADSVKGRFTISRDNAKNTVYLQMNSLKPEDTAVYYCNKVWPRVHPWNYDYWGQGTQVTVSS ) is high polyreactivity

New cases:
# polyreactivity (PSR sort gate) (sequence: QVQLVESGGGLVQAGCSLRLSCAASGFIFDDYDMGWYRQAPGKERELVAAISWSGGSTYYADSVKGRFTISRDNAKNTVYLQMNSLKPEDTAVFYCNADYYRSRYDYWGQGTQVTVSS ) is high polyreactivity

# polyreactivity (PSR sort gate) (sequence: QVQLVESAGGLVQAGGSLRLSCAASGFTFYFYAMGWSRQAPGKERELVAAISRSGSRTYYADSVKGRFTISRDNAKNTVYLQMNSLKPEDTAVYYCARVRPRGLYFVLHYDYWGQGTQVTVSS ) is high polyreactivity

# polyreactivity (PSR sort gate) (sequence: QVQLVESGGGLVQAGGSLRLSCAASGFISGSNVMGWYRQAPGKERELVAAINWSGDNTYYADSVKGRFTISRDNAKNTVYLQMNSLKPEDTAVYYCNADVYSYATPEMDYWGQGTQVTVSS ) is low polyreactivity

# polyreactivity (PSR sort gate) (sequence: QVQLVESGGGLVQAGGSLRLSCAASGRIFNYYAMGWYRQAPGKERELVAAINSGGSTYADSVKGRFTISRDNAKNTVYLQMNSLKPEDTAVYYCAKDGQLQSVRERPSGYDHWGQGTQVTVSS ) is low polyreactivity

# polyreactivity (PSR sort gate) (sequence: QVLLVESGGGLVQAGGSLRLICAASGLIFFYYDMGWYRQAPGKERELVAAISQRGGSTYYADSLKGRFTISRDNEKNTVYLQMNSLKPEETAVYYCNVRSPASYRRYYWGQGTQVTVSS ) is high polyreactivity

# polyreactivity (PSR sort gate) (sequence: QVQLVESGGGLVQARCSLRLSCDASGSIFPHYAMGWYRQAPGKEREFVATISGSTGRTYYADSVKGRFTISRDYAKNTVYLQMNSLKTEDTAVYYCATSVGYYLPPIKYDYWGQGTQVTVSS ) is low polyreactivity

# polyreactivity (PSR sort gate) (sequence: QVQLVESGGGLVQAGGSLRLSCAASGRTFRSYAMGWYRQAPGKERELVAAIRRGGSTNYADSVKGRFTISRDNAKNTVYLQMNSLKPEDTAVYYCNARQTVRGPTDGRIAVWFDYWGQGTQVTVSS ) is high polyreactivity

src = the nanobody polyreactivity screen of Harvey et al. (2022)
